Data credit: patent US6369101B1

EXPERIMENT_NOTES: Cytotoxic effect in primary rabbit kidney cells
Format: cell-based
CONDITION_PARAMETERS: primary rabbit kidney cells; Primary Rabbit Kidney cell line
PROPERTY: CC50 at 72 h

Exam item: Returns the measured CC50 at 72 h for the input compound. Input: CC1(C)CCC23CC[C@]4(C)C(CCC5[C@@]6(C)CCC(O)C(C)(C)C6CC[C@]54C)C2C1OC3 (stereo partly drawn) [Allobetulin, 3β-hydroxy-19αH-19,28-epoxy-oleanane]
Marked response: > 0.3 µg/mL

----------
Tested on: HSV-1 strain F
EXPERIMENT_NOTES: CPE inhibition, HSV-1 strain F in HEp-2 cells; further: key: +++ = Complete cytopathic effect; ++ = Moderate cytopathic effect; + = Minimum cytopathic effect; − = No cytopathic effect
Assay type: cell-based, herpes simplex virus type 1
CONDITION_PARAMETERS: conc. per compound (ng/ml)
Experimental: Human laryngeal epithelial carcinoma cells (HEp-2, ATCC, Rockville, Md.) were used for testing of antiviral compounds by cytopathic effect (CPE) inhibition and plaque reduction assay. […] The antiviral activity of the test compounds was determined against HSV-1 strain F, HSV-2 strain G (ATCC), HSV-1 strain E-377 and HSV-2 strain MS (Dr. E. R. Kern, see above), CMV strain AD 169 (NIH), HCMV (NIH), MCMV (NIH), and VZV strain Ellen (NIH). […]
PROPERTY: Cytopathic Effect (CPE) Inhibition HSV-1 Strain F

Example cases with answers are listed next.
COMPOUND: CC(=O)OC1CCC2(C)C(CCC3(C)C2CCC2C4C5OC(=O)C4(CCC5(C)C)CCC23C)C1(C)C (stereo not drawn) [3β-Acetoxy-19αH-19,28lactone-oleanan]
DATA_VALUE: ++

COMPOUND: C[C@@H]1O[C@@H](O[C@H]2[C@H](O[C@H]3CC[C@@]4(C)[C@@H](CC[C@]5(C)[C@@H]4CC=C4[C@@H]6CC(C)(C)CC[C@]6(C(=O)O)CC[C@]45C)[C@]3(C)CO)OC[C@H](O)[C@@H]2O)[C@H](O)[C@H](O)[C@H]1O [Hederine hydrate, α-hederin hydrate]
DATA_VALUE: ++

COMPOUND: CC1(C)CCC23CC[C@]4(C)C(CCC5[C@@]6(C)CCC(O)C(C)(C)C6CC[C@]54C)C2C1OC3=O (stereo partly shown) [Allobetulin lactone, Allobetulin-Lactone]
DATA_VALUE: +++

COMPOUND: CC1(C)CCC23CC[C@@]4(C)C(CCC5[C@@]6(C)CCC(OP(=O)(O)O)C(C)(C)C6CC[C@]54C)C2C1OC3 (stereo partly shown) [Allobetulin 3-phosphate, Allobetulin Phosphate]
DATA_VALUE: +++

COMPOUND: CC1(C)CCC23CCC4(C)C(CCC5C6(C)CCC(OC(=O)CCC(=O)O)C(C)(C)C6CCC54C)C2C1OC3 (stereo not shown) [Allobetulin Succinate, Allobetulin, 3-Succinate]
DATA_VALUE: ++

Items follow; give Cytopathic Effect (CPE) Inhibition HSV-1 Strain F for each.
1. C=C(C)[C@@H]1CC[C@]2(CO)CC[C@]3(C)[C@H](CC[C@@H]4[C@@]5(C)CC[C@H](O)C(C)(C)[C@@H]5CC[C@]43C)[C@@H]12 [Betulin, lup-20(29)-ene-3β, 28-diol, reference compound]
2. C[C@H]1[C@H](C)CC[C@]2(CO)CC[C@]3(C)C(=CC[C@@H]4[C@@]5(C)CC[C@H](O)C(C)(C)[C@@H]5CC[C@]43C)[C@H]12 [Uvaol]
3. C[C@H]1[C@H](C)CC[C@]2(C(=O)O)CC[C@]3(C)C(=CC[C@@H]4[C@@]5(C)CC[C@H](O)C(C)(C)[C@@H]5CC[C@]43C)[C@H]12 [Ursolic acid]
4. CC1(C)CCC23CCC4(C)C(CCC5C6(C)CCC(OC(=O)CO)C(C)(C)C6CCC54C)C2C1OC3 (stereo not shown) [Allobetulin 3-glycolate, Allobetulin, 3-Glycolate]

Marked response:
1. +
2. ++
3. ++
4. +++

Exam item: Returns the measured Cytopathic Effect (CPE) Inhibition HSV-1 Strain F for the input compound. Input: CC1(C)CCC23CC[C@]4(C)C(CCC5[C@@]6(C)CCC(=O)C(C)(C)C6CC[C@]54C)C2C1OC3 (stereo partly shown) [Allobetulon]
Marked response: ++
